- test system: GR/PPAR chimeric receptor (Mus musculus, UniProt P23204)
- Construct: COS cells, MMTV-luciferase
- Sequence (P23204 whole entry, change not shown): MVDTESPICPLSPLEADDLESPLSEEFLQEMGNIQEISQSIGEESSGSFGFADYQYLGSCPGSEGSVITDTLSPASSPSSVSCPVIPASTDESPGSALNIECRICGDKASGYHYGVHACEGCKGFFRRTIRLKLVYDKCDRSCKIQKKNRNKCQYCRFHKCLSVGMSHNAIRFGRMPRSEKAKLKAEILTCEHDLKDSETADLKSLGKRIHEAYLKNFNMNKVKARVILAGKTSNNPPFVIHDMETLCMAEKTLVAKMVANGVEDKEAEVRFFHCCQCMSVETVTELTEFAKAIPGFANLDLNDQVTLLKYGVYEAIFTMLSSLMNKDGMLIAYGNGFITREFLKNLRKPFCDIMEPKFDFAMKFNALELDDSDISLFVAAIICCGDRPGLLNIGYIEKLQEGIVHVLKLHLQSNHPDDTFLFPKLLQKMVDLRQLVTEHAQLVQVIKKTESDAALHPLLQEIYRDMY
- Sequence (P06537 whole entry partner): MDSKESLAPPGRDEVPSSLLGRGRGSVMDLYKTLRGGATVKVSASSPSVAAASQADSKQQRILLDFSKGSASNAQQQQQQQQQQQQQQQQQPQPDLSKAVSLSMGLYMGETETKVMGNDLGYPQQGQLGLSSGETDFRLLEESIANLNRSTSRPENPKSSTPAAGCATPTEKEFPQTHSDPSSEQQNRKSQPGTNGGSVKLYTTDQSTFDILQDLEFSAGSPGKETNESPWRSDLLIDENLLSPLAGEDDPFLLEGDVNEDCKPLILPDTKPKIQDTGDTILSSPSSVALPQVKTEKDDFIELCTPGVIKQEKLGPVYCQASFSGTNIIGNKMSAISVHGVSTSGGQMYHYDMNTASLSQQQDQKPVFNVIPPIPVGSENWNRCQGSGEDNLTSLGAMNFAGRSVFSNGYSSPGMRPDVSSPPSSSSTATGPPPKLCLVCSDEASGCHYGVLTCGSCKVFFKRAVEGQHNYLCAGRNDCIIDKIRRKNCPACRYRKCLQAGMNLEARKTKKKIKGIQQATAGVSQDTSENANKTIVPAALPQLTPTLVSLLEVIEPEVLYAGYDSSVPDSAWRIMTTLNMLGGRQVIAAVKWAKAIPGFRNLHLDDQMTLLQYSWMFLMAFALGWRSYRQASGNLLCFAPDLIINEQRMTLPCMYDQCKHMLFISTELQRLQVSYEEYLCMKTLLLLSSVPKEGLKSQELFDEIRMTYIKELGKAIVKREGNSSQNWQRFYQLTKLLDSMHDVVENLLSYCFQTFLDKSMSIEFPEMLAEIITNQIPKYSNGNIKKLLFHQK
- assay comment: Ligand dependent transcription assay, GR/PPAR chimeric receptor with MMTV-luciferase reporter
- Type: cell-based
observed property: Expression mediated by GR/PPAR

CCCCCCCC/C=C\CCCCCCCC(=O)O [Oleic Acid, oleic acid, reference compound]: activated expression
Cc1cccc(Nc2cc(Cl)nc(SCC(=O)O)n2)c1C [WY14643, reference compound]: activated expression

Ref: patent US5607967A
